# Tested on: Phospho-Rb Ser807/811 in OVCAR3 cells
# experimental_protocol: OVCAR3 Phospho-Rb Ser807/811 HTRF assay
# Format: cell-based
# cond: Homo sapiens, OVCAR-3, 1 h, OVCAR3 cells, Phospho-Rb Ser807/811 HTRF, 1 hour incubation; read-out: pRb-OVCAR3 IC50
readout_type: pIC50
Please keep in mind that pIC50 is minus log10 of the molar concentration; only the number is needed.

Solved cases (6 shown):
# molecule, endpoint_result
measured = [
    ("CC(C)NC(=O)O[C@@H]1CC[C@H](c2cc(NC(=O)c3ccc(O)c(C=O)c3)n[nH]2)C1", 6.89),
    ("CCN(CC)C(=O)O[C@@H]1CC[C@H](c2cc(NC(=O)COc3cc(OC)cc(O)c3C=O)n[nH]2)C1", 7.63),
    ("Cc1cc(O)c(C=O)c(OCC(=O)Nc2cc([C@H]3CC[C@@H](OC(=O)N4C5CCC4CC5)C3)[nH]n2)c1", 7.16),
    ("COCC1(NC(=O)O[C@@H]2CC[C@H](c3cc(NC(=O)COc4cc(OC)cc(O)c4C=O)n[nH]3)C2)CCC1 (stereo in doubt)", 7.41),
    ("COc1cc(O)c(C=O)c(OCC(=O)Nc2cc([C@H]3CC[C@@H](OC(=O)N4CC5CC(C5)C4)C3)[nH]n2)c1", 7.20),
    ("C#CCN(CC)C(=O)O[C@@H]1CC[C@H](c2cc(NC(=O)COc3cc(OC)cc(O)c3C=O)n[nH]2)C1", 7.54),
]

API: the following record is the query input.
Briefly, pIC50 measured for COc1cc(O)c(C=O)c(OCC(=O)Nc2cc([C@H]3CC[C@@H](OC(=O)NC[C@H]4CCO4)C3)[nH]n2)c1 : 6.85
